Here the recorded DBIL is given for each entry.
species: Rattus norvegicus; test: Open TG-GATES - Regimen: Daily Repeat; assay type: toxicity, organism-based, Sprague-Dawley; parameters: regimen Daily Repeat, gender Male, age 6 weeks; settings: in vivo, po, 300 mg/kg, […], tissue Plasma, route gavage, dose level Middle, time 28 day
resultType: DBIL (mg/dL)

| compound | val |
| --- | --- |
| COc1ccc2[nH]c([S+]([O-])Cc3ncc(C)c(OC)c3C)nc2c1 (stereo not given) | 0.062 |
| CCOc1ccc(NC(=O)CC(C)O)cc1 (stereo not given) | 0.028 |
| NC(N)=Nc1nc(CSCCC(N)=NS(N)(=O)=O)cs1 | 0.072 |
| COC1=CC(=O)C[C@@H](C)[C@]12Oc1c(Cl)c(OC)cc(OC)c1C2=O | 0.07 |
| CCOC(=O)CCC(=O)O[C@H]1[C@H](O[C@@H]2[C@@H](C)[C@H](O[C@H]3C[C@@](C)(OC)[C@@H](O)[C@H](C)O3)[C@@H](C)C(=O)O[C@H](CC)[C@@](C)(O)[C@H](O)[C@@H](C)C(=O)[C@H](C)C[C@@]2(C)O)O[C@H](C)C[C@@H]1N(C)C [ERYTHROMYCIN ETHYLSUCCINATE] | 0 |
